B1: Calcium-binding protein 2, residues 155 to 219; numbered along this chain, Q9NPB3 (parent)
chain: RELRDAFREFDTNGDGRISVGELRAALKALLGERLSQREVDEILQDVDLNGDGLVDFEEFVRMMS

variants of: B1; assay: abundance fitness (aPCA) (normalised: wild type 0, dead -1); higher = more abundant; growth selection in yeast, the domain comes from the species named; conditions: Homo sapiens
measured_attribute: abundance fitness

mutation_name: G14L
recorded_measurement: -0.226
//
mutation_name: G16H
recorded_measurement: -0.897
//
mutation_name: A25E
recorded_measurement: 0.096
//
mutation_name: Q45I
recorded_measurement: -0.01
//
mutation_name: E59T
recorded_measurement: 0.088
//
mutation_name: Q45V
recorded_measurement: -0.108
//
mutation_name: D11V
recorded_measurement: -1.02

Data provenance is the Human Domainome abundance scans (Beltran et al. 2025).
